# ASSAY_PROTOCOL: acute toxicity by injection into the peritoneal cavities of mice
# ASSAY_SETUP: mouse, in vivo, ip
# Description: To illustrate one of the pharmacological effects of these compounds comparative experiments were carried out on the coronary blood flow increasing action, which was measured in rabbits by the Langendorff method, and on acute toxicity using the said trimetazidine as control, with the results being shown in Table 1. […] 1387 (1960), and the acute toxicity was measured by injection into the peritoneal cavities of mice.

{"columns": ["STRUCTURE_SMILES_STRING", "LD50 (mg/kg)"],
 "data": [
  ["COc1ccc(CN2CCN(CCC(c3ccccc3)c3ccccc3)CC2)c(OC)c1OC", 100]
]}
